Record: IC50 reported on mTOR kinase (Homo sapiens, UniProt P42345).

>  <compound>
CN(C)C1CCN(C(=O)c2ccc(NC(=O)Nc3ccc(-c4nc(N5CCOCC5)c5cc(F)c(-c6cccnc6)cc5n4)cc3)cc2)C1 (stereo in doubt)

>  <targetOrTestSystem>
mTOR kinase (Homo sapiens, UniProt P42345)

>  <IC50>
< 50 nM

$$$$
>  <compound>
CN1CCN(C(=O)c2ccc(NC(=O)Nc3ccc(-c4nc(N5CCOCC5)c5ccc(-c6cccnc6F)cc5n4)cc3)cc2)CC1

>  <targetOrTestSystem>
mTOR kinase (Homo sapiens, UniProt P42345)

>  <IC50>
< 50 nM

$$$$
>  <compound>
Cc1ccc(-c2ccc3c(N4CCOCC4)nc(-c4ccc(NC(=O)Nc5ccc(C(=O)N(C)C)cc5)c(F)c4F)nc3c2)o1

>  <targetOrTestSystem>
mTOR kinase (Homo sapiens, UniProt P42345)

>  <IC50>
201 to 10000 nM

$$$$
>  <compound>
CN(C)C(=O)c1ccc(NC(=O)Nc2ccc(-c3nc(N4CCOCC4)c4ccc(-c5ccnc(F)c5)cc4n3)cc2)cc1

>  <targetOrTestSystem>
mTOR kinase (Homo sapiens, UniProt P42345)

>  <IC50>
< 50 nM

$$$$
>  <compound>
CN(C)C(=O)c1ccc(NC(=O)Nc2ccc(-c3nc(N4CCOCC4)c4ccc(-c5cccc(S(C)(=O)=O)c5)cc4n3)cn2)cc1

>  <targetOrTestSystem>
mTOR kinase (Homo sapiens, UniProt P42345)

>  <IC50>
50 to 200 nM

$$$$
>  <compound>
CN(C)C(=O)c1ccc(NC(=O)Nc2ccc(-c3nc(N4CCOCC4)c4ccc(-c5ccco5)cc4n3)cn2)cc1

>  <targetOrTestSystem>
mTOR kinase (Homo sapiens, UniProt P42345)

>  <IC50>
201 to 10000 nM

$$$$

---

Each entry below carries its reported IC50.
System: PC3 cells
protocolDescription: XTT assay for cell viability, PC3 cells
Type: cell-based, human
conditionParameters: Homo sapiens, PC-3, cell viability

>  <molecule>
CN(C)C(=O)c1ccc(NC(=O)Nc2ccc(-c3nc(N4CCOCC4)c4ccc(-c5ccnc(F)c5)cc4n3)cc2)cc1

>  <IC50>
501 to 5000 nM

$$$$
>  <molecule>
CN(C)C(=O)c1ccc(NC(=O)Nc2ccc(-c3nc(N4CCOCC4)c4ncc(-c5ccnnc5)cc4n3)cc2)cc1

>  <IC50>
201 to 10000 nM

$$$$
>  <molecule>
O=C(Nc1ccc(C(=O)N2CCC(O)C2)cc1)Nc1ccc(-c2nc(N3CCOCC3)c3ccc(-c4cncnc4)cc3n2)cc1 (stereo not shown)

>  <IC50>
201 to 10000 nM

$$$$
>  <molecule>
CN(C)C(=O)c1ccc(NC(=O)Nc2ccc(-c3nc(N4CCOCC4)c4ccc(-c5ccco5)cc4n3)cc2)cc1F

>  <IC50>
< 100 nM

$$$$
>  <molecule>
CN1CCN(C(=O)c2ccc(NC(=O)Nc3ccc(-c4nc(N5CCOCC5)c5ccc(-c6ccsc6)cc5n4)cc3)cc2)CC1

>  <IC50>
100 to 500 nM

$$$$
>  <molecule>
CN1CCN(C(=O)c2ccc(NC(=O)Nc3ccc(-c4nc(N5CCOCC5)c5ncc(-c6cncnc6)cc5n4)cc3)cc2)CC1

>  <IC50>
100 to 500 nM

$$$$
>  <molecule>
CC(=O)Nc1ccc(NC(=O)Nc2ccc(-c3nc(N4CCOCC4)c4ccc(-c5cncnc5)cc4n3)cc2)cc1

>  <IC50>
100 to 500 nM

$$$$

---

targetOrTestSystem: PI3Kα (wild-type), P110/P85α (Homo sapiens, UniProt P42336)
Sequence (P42336 whole entry): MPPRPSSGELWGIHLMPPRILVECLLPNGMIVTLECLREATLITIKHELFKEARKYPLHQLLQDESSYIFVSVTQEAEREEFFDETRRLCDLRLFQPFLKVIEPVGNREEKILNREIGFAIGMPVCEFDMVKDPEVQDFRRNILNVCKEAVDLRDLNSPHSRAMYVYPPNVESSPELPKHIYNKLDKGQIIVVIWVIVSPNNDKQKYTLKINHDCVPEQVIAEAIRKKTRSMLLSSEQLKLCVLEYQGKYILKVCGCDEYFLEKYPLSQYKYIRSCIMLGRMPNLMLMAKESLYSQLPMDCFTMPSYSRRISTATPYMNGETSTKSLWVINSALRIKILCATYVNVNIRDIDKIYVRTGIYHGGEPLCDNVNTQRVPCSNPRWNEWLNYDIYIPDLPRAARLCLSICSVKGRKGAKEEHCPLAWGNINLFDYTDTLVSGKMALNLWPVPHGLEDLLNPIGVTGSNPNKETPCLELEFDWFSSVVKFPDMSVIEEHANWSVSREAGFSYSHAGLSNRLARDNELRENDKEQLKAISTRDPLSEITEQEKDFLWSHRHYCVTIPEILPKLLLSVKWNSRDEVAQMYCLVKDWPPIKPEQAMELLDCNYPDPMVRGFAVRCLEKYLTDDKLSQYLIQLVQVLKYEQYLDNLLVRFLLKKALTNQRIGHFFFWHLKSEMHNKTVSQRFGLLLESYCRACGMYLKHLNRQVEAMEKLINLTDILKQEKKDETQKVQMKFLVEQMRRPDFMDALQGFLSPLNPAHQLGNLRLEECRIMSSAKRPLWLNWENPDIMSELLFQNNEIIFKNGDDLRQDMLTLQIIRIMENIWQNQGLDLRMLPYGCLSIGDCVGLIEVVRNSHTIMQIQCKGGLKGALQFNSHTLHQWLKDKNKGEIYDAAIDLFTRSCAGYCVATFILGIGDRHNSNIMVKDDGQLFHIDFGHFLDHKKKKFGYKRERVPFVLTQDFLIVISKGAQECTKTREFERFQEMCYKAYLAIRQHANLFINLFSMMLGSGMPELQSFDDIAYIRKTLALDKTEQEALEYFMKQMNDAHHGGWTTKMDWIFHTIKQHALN
Sequence (P27986 whole entry partner): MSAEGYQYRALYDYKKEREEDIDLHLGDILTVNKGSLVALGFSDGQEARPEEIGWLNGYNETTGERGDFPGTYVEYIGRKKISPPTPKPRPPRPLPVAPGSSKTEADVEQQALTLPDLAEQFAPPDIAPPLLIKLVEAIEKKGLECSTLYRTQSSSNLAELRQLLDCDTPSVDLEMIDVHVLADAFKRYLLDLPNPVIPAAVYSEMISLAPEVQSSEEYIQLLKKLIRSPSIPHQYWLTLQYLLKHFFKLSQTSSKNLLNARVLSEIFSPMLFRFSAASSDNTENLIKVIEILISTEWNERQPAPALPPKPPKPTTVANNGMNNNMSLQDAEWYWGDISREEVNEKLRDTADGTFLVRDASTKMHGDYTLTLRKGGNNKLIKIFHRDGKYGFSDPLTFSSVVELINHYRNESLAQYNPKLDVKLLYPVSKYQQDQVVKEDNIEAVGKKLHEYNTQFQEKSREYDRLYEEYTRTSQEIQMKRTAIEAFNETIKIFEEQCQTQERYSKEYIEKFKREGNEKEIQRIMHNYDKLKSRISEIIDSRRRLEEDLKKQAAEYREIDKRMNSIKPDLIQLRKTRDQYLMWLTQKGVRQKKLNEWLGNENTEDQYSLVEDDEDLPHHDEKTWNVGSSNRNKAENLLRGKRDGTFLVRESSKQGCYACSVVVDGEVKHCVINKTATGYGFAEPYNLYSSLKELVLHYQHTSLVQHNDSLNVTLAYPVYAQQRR
protocolDescription: PI3 Kinase TR-FRET assay, PI3Kα (wild-type)
measuredEndpoint: IC50

>  <compound>
CN1CCN(C(=O)c2ccc(NC(=O)Nc3ccc(-c4nc(N5CCOCC5)c5ccc(-c6ccco6)cc5n4)cc3)cc2)CC1 [Example 158]

>  <result>
< 50 nM

$$$$
>  <compound>
CN(C)C(=O)c1ccc(NC(=O)Nc2ccc(-c3nc(N4CCOCC4)c4ccc(-c5ccc(CO)o5)cc4n3)cc2F)cc1 [Example 203]

>  <result>
< 50 nM

$$$$
>  <compound>
Cc1nn(C)c(C)c1-c1ccc2c(N3CCOCC3)nc(-c3ccc(NC(=O)Nc4ccc(C(=O)N(C)C)cc4)cc3F)nc2c1 [Example 269]

>  <result>
< 50 nM

$$$$
>  <compound>
CN(C)C(=O)c1ccc(NC(=O)Nc2ccc(-c3nc(N4CCOCC4)c4ccc(CN5CCC(O)CC5)cc4n3)cc2)cc1 [Example 284]

>  <result>
201 to 10000 nM

$$$$
>  <compound>
CN(C)C(=O)c1ccc(NC(=O)Nc2ccc(-c3nc(N4CCOCC4)c4ccc(-c5cncnc5)cc4n3)cc2F)cn1 [Example 123]

>  <result>
50 to 200 nM

$$$$
>  <compound>
Cc1noc(C)c1-c1cnc2c(N3CCOCC3)nc(-c3ccc(NC(=O)Nc4ccc(C(=O)N(C)C)cc4)c(F)c3)nc2c1 [Example 135]

>  <result>
< 50 nM

$$$$
>  <compound>
COc1cccc(-c2ccc3c(N4CCOCC4)nc(-c4ccc(NC(=O)Nc5ccc(C(=O)N(C)C)cc5)cc4)nc3c2)n1 [Example 95]

>  <result>
50 to 200 nM

$$$$

---

targetOrTestSystem: PI3Kα (wild-type), P110/P85α (Homo sapiens, UniProt P42336)
protocolDescription: PI3 Kinase TR-FRET assay, PI3Kα (wild-type)
pIC50: −log10 of the molar value.
Each entry below carries its reported pIC50.

>  <compound>
COc1ccc(-c2ccc3c(N4CCOCC4)nc(-c4ccc(NC(=O)Nc5ccc(C(=O)N(C)C)c(F)c5)cc4)nc3c2)cn1

>  <pIC50>
6.70 to 7.30

$$$$
>  <compound>
NC1CCN(C(=O)c2ccc(NC(=O)Nc3ccc(-c4nc(N5CCOCC5)c5ccc(-c6cncnc6)cc5n4)cc3F)cc2)C1 (stereo in doubt)

>  <pIC50>
> 7.30

$$$$
>  <compound>
CN(C)C(=O)c1ccc(NC(=O)Nc2ccc(-c3nc(N4CCOCC4)c4ncc(-c5cnn(C)c5)cc4n3)cc2F)cc1

>  <pIC50>
> 7.30

$$$$

---

Tested on: pAKT(T308) (phosphorylated at threonine 308), PC3 cells
protocolDescription: In-cell Western assay, pAKT(T308) in PC3 cells
Format: cell-based
conditionParameters: Homo sapiens, PC-3, In-cell Western
pIC50: −log10 of the molar value.
measuredEndpoint: pIC50

>  <structureString>
CN(C)C(=O)c1ccc(NC(=O)Nc2ccc(-c3nc(N4CCOCC4)c4ccc(-c5cccnc5)cc4n3)cc2)c(F)c1

>  <result>
> 7.00

$$$$
>  <structureString>
CN(C)C(=O)c1ccc(NC(=O)Nc2ccc(-c3nc(N4CCOCC4)c4ncc(-c5cnn(C)c5)cc4n3)cc2)cc1

>  <result>
6.30 to 7.00

$$$$
>  <structureString>
CN(C)C(=O)c1ccc(NC(=O)Nc2ccc(-c3nc(N4CCOCC4)c4ccc(-c5cncnc5)cc4n3)cc2)cc1

>  <result>
5.30 to 6.30

$$$$
>  <structureString>
CN(C)CCN(C)C(=O)c1ccc(NC(=O)Nc2ccc(-c3nc(N4CCOCC4)c4ccc(-c5cncnc5)cc4n3)cc2)cc1

>  <result>
> 7.00

$$$$
>  <structureString>
CN(C)C(=O)c1ccc(NC(=O)Nc2ccc(-c3nc(N4CCOCC4)c4ccc(-c5cccc(S(C)(=O)=O)c5)cc4n3)cc2)cc1

>  <result>
6.30 to 7.00

$$$$
>  <structureString>
CN(C)C(=O)c1ccc(NC(=O)Nc2ccc(-c3nc(N4CCOCC4)c4ncc(-c5cccnc5)cc4n3)cc2)cc1

>  <result>
6.30 to 7.00

$$$$
>  <structureString>
CC(=O)Nc1cccc(-c2ccc3c(N4CCOCC4)nc(-c4ccc(NC(=O)Nc5ccc(C(=O)N(C)C)cc5)cc4)nc3c2)c1

>  <result>
6.30 to 7.00

$$$$
>  <structureString>
CNC(=O)c1ccc(NC(=O)Nc2ccc(-c3nc(N4CCOCC4)c4ccc(-c5cccc(S(C)(=O)=O)c5)cc4n3)cc2)cc1

>  <result>
6.30 to 7.00

$$$$
>  <structureString>
CN(C)C(=O)c1ccc(NC(=O)Nc2ccc(-c3nc(N4CCOCC4)c4ccc(-c5cccnc5)cc4n3)cc2)cc1

>  <result>
6.30 to 7.00

$$$$
>  <structureString>
CN(C)C(=O)c1ccc(NC(=O)Nc2ccc(-c3nc(N4CCOCC4)c4ccc(-c5cncnc5)cc4n3)cc2)c(F)c1

>  <result>
> 7.00

$$$$

---

targetOrTestSystem: mTOR kinase (Homo sapiens)
Construct: purchased Millipore, USA
protocolDescription: mTOR kinase TR-FRET assay
Format: biochemical
conditionParameters: read-out: mTO R
measuredEndpoint: IC50

>  <compound>
CN(C)C(=O)c1ccc(NC(=O)Nc2ccc(-c3nc(N4CCOCC4)c4ncc(-c5cnn(C)c5)cc4n3)cc2)c(F)c1

>  <result>
< 50 nM

$$$$
>  <compound>
Cc1ccc(-c2ccc3c(N4CCOCC4)nc(-c4ccc(NC(=O)Nc5ccc(C(=O)N6CC[C@@H](N(C)C)C6)cc5)cc4)nc3c2)o1

>  <result>
< 50 nM

$$$$
>  <compound>
Cc1ccc(-c2ccc3c(N4CCOCC4)nc(-c4ccc(NC(=O)Nc5ccc(C(=O)N6CCC(O)C6)cc5)cc4)nc3c2)o1 (stereo not shown)

>  <result>
< 50 nM

$$$$
>  <compound>
CN(C)C(=O)c1ccc(NC(=O)Nc2ccc(-c3nc(N4CCOCC4)c4ccc(-c5ccncc5)cc4n3)cc2)cc1

>  <result>
< 50 nM

$$$$
>  <compound>
Cc1ncccc1-c1ccc2c(N3CCOCC3)nc(-c3ccc(NC(=O)Nc4ccc(C(=O)N(C)C)cc4)cc3)nc2c1

>  <result>
< 50 nM

$$$$
>  <compound>
CN(C)C(=O)c1ccc(NC(=O)Nc2ccc(-c3nc(N4CCOCC4)c4ccc(-c5ccccn5)cc4n3)cc2)cc1F

>  <result>
< 50 nM

$$$$
>  <compound>
CN(C)C(=O)c1ccc(NC(=O)Nc2ccc(-c3nc(N4CCOCC4)c4ncc(-c5cnn(C)c5)cc4n3)cc2F)c(F)c1

>  <result>
50 to 200 nM

$$$$
>  <compound>
O=C(Nc1ccc(-c2nc(N3CCOCC3)c3ccc(-c4cccnc4F)cc3n2)cc1)Nc1ccc(N2CCCC2=O)cc1

>  <result>
< 50 nM

$$$$
>  <compound>
CN(C)C(=O)c1ccc(NC(=O)Nc2ccc(-c3nc(N4CCOCC4)c4ccc(-c5cnc(N(C)C)nc5)cc4n3)cc2)cc1

>  <result>
< 50 nM

$$$$
>  <compound>
CN(C)C(=O)c1ccc(NC(=O)Nc2ccc(-c3nc(N4CCOCC4)c4ccc(-c5cccnc5F)cc4n3)cn2)cc1

>  <result>
50 to 200 nM

$$$$
>  <compound>
CN(C)C(=O)c1ccc(NC(=O)Nc2ccc(-c3nc(N4CCOCC4)c4ccc(-c5cccnc5)cc4n3)cc2)cc1F

>  <result>
< 50 nM

$$$$
>  <compound>
CN(C)C(=O)c1ccc(NC(=O)Nc2ccc(-c3nc(N4CCOCC4)c4ccc(-c5cccnc5)cc4n3)cc2)cc1

>  <result>
< 50 nM

$$$$
>  <compound>
Cc1ncccc1-c1ccc2c(N3CCOCC3)nc(-c3ccc(NC(=O)Nc4ccc(C(=O)N(C)C)cc4F)cc3)nc2c1

>  <result>
< 50 nM

$$$$

The measured values listed here are drawn from patent US9115092B2.
